Origin of values: patent US20220073643A1

Biological target: human Claudin18.2 (human)
Experiment: cell-based or functional assay
Here the recorded CDC EC50 is given for each entry.
Just the number in µg/mL, nothing appended.

>>> value_reported("423C10E1 (antibody, V domains shown) VH: DVQLVESGGGLVQPGGSRKLSCVTSGFTFSSFGMHWVRQAPEKGLEWVAFISGGGSPIFYADSVKGRFTVSRDNPKNTLFLQMTGLRSEDTAMYFCARFYFGNSFAYWGQGTLVTVSA VL: DIVMTQSPSSLTVTAGEKVTMNCRSSQSLFNSGNQKNYLTWYQQKPGQSPKLLIYWASTRESGVPVRFTGSGSGTDFTLTISSVQAEDLAVYYCQTSFNYPLTFGPGTKLELK")
3.39
>>> value_reported("411B4G4 (antibody, V domains shown) VH: DVQLVESGGGLVQPGGSRKLSCAASGFTFSGFGLHWIRQTPEKGLEWVAYISSGSRPIYYADTVKGRFTISRDNPKNTLFLQMTSLRSEDTAMYFCARFYYGNSFDHWGQGTLVTVSA VL: DIVMTQSPSFLTVTAGEKVTMSCRSSQSLLNSGNQRNYLTWYQQKPGQPPKLLIYWASTRESGVPDRFTGSGSGTDFTLTISSVQAEDLALYYCQNAYSFPLTFGAGTKLELK")
3.98
>>> value_reported("410A9A9 (antibody, V domains shown) VH: DVQLVESGGGLVQPGGSRKLSCAASGFTFSSFGMHWVRQAPEKGLEWVAYISSGSSPIYYADTVKGRFTISRDNPKNTLFLQMTSLRSEDTAMYFCATFYYGNSFAYWGQGTLVTVSA VL: DIVMTQSPSSLTVTAGEKVTMSCKSSQTLLNSGNQKNYLTWYQQKSGQPPKLLIYWASTRESGVPDRFTGSGSGTDFTLTISSVQAEDLAVYYCQNAYSYPVTFGSGTKVELK")
0.872
>>> value_reported("265E6G2 (antibody, V domains shown) VH: QAYLQQSGAELVRSGASVKMSCKASGYTFTSYNMHWVKQTPGQGLEWIGYIYPGNGGTNYNQKFKGKATLTADTSSSTAYMQISSLTSEDSAVYFCARDYYGNSFAYWGQGTLVTVSA VL: DLVMTQSPSSLTVTAGEKVTMSCKSSQSLLNSGNQKNYLTWYQQKPGQPPKLLIYWASTRESGVPDRFTGSGSGTDFTLTISNIQAEDLAVYYCQNDYSYPLPFGAGTKLELR")
0.327

Prompt line: Would you mind telling me what CDC EC50 value was observed for 248G8E8 (antibody, V domains shown) VH: QVQLKESGPGLVAPSQSLSITCTVSGFSLTTYGVSWVRQPPGKGLEWLGVIWGDGSTNYHSTLISRLRISKDKSKSQVFLKLNSLQTDDTATYYCAKAGRGNALDYWGQGTSVTVSS VL: DIVLTQSPSSLTVTAGEKVTMSCKSSQSLLNSGNQKNYLTWYQQKPGQPPKLLIYWASTRESGVPDRFTGSGSGTDFTLTISSVQAEDLAVYYCQNDYSFPLTFGAGTKLELK ?
Response line: 1.61
